Assay: gradient 5% acetonitrile 3 min, to 50% in 2 min, to 85% in 15 min, held 3 min, 100 µL/min
Settings: column: Zorbax Extend-C18 2.1 x 50 mm; eluents: water / acetonitrile, 0.1% formic acid
# binarize RP-LC retention time: threshold 800 s inclusive, high side YES, low side NO

CCCN(C)C(=O)c1c(C)oc2ccn(Cc3ccc(F)cc3)c(=O)c12
NO

For this molecule, is measured RP-LC retention time 800 s or higher? CC(=O)Nc1ccc2c(c1)nc(CN1CCN(C(=O)c3ccco3)CC1)n2C
NO

Similarly, O=S(=O)(c1ccc(Cl)cc1)N1CCc2nc(-c3ccccc3)ncc2C1 ?
YES

Similarly, Cc1nn(C)c(C)c1S(=O)(=O)N1CC=C(c2cn(C)c3ncccc23)CC1 ?
NO

* * *

Assay: gradient 5% acetonitrile 3 min, to 50% in 2 min, to 85% in 15 min, held 3 min, 100 µL/min
Conditions: column: Zorbax Extend-C18 2.1 x 50 mm; eluents: water / acetonitrile, 0.1% formic acid
Listed here: items and their measured RP-LC retention time.
Answer format: value, then unit.

# annotated cases, reported RP-LC retention time shown
COc1ccc(-c2noc(-c3ccc(NCc4ccc(C)o4)nc3)n2)cc1
1150 s
COc1ccc(C)cc1NC(=O)NCCc1cn(C)c2ncccc12
676 s
O=C(Cn1c(CO)nc2ccccc21)N1CCCc2ccccc21
628 s

Give the measured RP-LC retention time of CCCS(=O)(=O)N1CCCC(Cn2c(C3CC3)nc3cccnc32)C1 (stereo not given) .
658 s

* * *

Listed here: items and their measured RP-LC retention time.
Experiment: gradient 5% acetonitrile 3 min, to 50% in 2 min, to 85% in 15 min, held 3 min, 100 µL/min
Details: column: Zorbax Extend-C18 2.1 x 50 mm; eluents: water / acetonitrile, 0.1% formic acid
Report the figure in s without appending any unit label.

Give the measured RP-LC retention time of Cc1ccc(C2=NC3(CCN(C(=O)c4ccc(F)cc4F)CC3)ON2)cc1 .
855

Similarly, Cc1cccc(N2CCN(C(=O)c3cn4c(n3)CCCC4)CC2)c1C ?
690

Similarly, C=CCNC(=O)Cc1c(C)n(C)c2nc(-c3ccccc3)nn2c1=O ?
663

Similarly, COc1ccc(N2CCN(c3ncc(S(=O)(=O)c4ccc(C)c(C)c4)c(N)n3)CC2)cc1 ?
966

Similarly, Cc1nnc(-c2ccc3ccn(CC(=O)NCCC(C)C)c3c2)o1 ?
754

Similarly, CCCNC(=O)c1cnn(-c2cc(-c3nc(C4CC4)no3)ccn2)c1C ?
911

Similarly, CCOC(=O)c1sc(NC(=O)CSc2nc3ccccc3[nH]2)nc1C ?
810

Similarly, COc1ccc(-c2noc(N3CCC(N4CCCCC4)CC3)n2)cc1OC ?
590

Similarly, CCn1nc(C(=O)NCCn2nc(C)cc2C)ccc1=O ?
578

Similarly, Cn1nc(C(=O)Nc2ccccc2)c2c1CCN(C(=O)NCc1ccco1)C2 ?
760

* * *

Test: gradient 5% acetonitrile 3 min, to 50% in 2 min, to 85% in 15 min, held 3 min, 100 µL/min
Conditions: column: Zorbax Extend-C18 2.1 x 50 mm; eluents: water / acetonitrile, 0.1% formic acid
quantity kind: RP-LC retention time (s)
Report the figure in s without appending any unit label.

# annotated cases, reported RP-LC retention time shown
COc1ccc(-c2noc(-c3ccc(N4CCN(c5ccc(OC)cc5)CC4)nc3)n2)cc1
1240
COc1cc(C2C(C(=O)N3CCOCC3)=C(C)NC3=C2C(=O)CCC3)cc(Br)c1O (centres undefined)
607
CC(C)Sc1ccc(CC(=O)NCc2ccsc2)cc1
908
Cc1cc(N2CCN(C(=O)Cc3cccc(F)c3)CC2)nc2nncn12
593
Cc1ccsc1C(=O)Nc1ccc(N2CCN(C3CCCCC3)C2=O)nc1
863
COc1ccc2[nH]c3c(c2c1)CCN1C(=O)N(c2ccccc2OC)C(=O)C31C (centres undefined)
884
O=C(NCCC1CCN(C(=O)Nc2ccc(F)cc2F)CC1)c1ccsc1
757
Cc1cnc(C(=O)N[C@@H]2CCC[C@@H]2C(=O)NC2CCCCCC2)cn1
735

Give the measured RP-LC retention time of COc1ccc(C)cc1NC(=O)N1C[C@H](c2nc(-c3ccncc3)no2)[C@@H](C)C1 .
876
